assay: Half life in Wistar rat at 1 mg/kg, iv; format: ADME, organism-based; set-up: dose 1 mg/kg, route intravenous; conditions: in vivo

- smiles-repr: "O=C(N[C@@H]1CCC[C@H](O)C1)c1noc(-c2ccc(C(F)(F)F)cc2)c1Cl"
  unit-spec: "h"
  half-life: 1.9

###

Entries and their solubility
experiment: Aqueous solubility of the compound at pH 7.4; type: physicochemical

- smiles-repr: "O=C(NC1CCOCC1)c1noc(-c2ccc(C(F)(F)F)cc2)c1Cl"
  solubility / µg/mL: 7
- smiles-repr: "O=C(N[C@H]1CC[C@@H](O)C1)c1noc(-c2ccc(C(F)(F)F)cc2)c1Cl"
  solubility / µg/mL: 6
- smiles-repr: "O=C(N[C@@H]1C[C@H](O)C[C@H](O)C1)c1noc(-c2ccc(C(F)(F)F)cc2)c1Cl"
  solubility / µg/mL: 2

Where do the numbers come from? From ChEMBL document CHEMBL1667818.
